Tested on: 996289-038-R-J1-PDC spheroid viability;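 further: luminescence used as a proxy for viable cell amount; spheroids exposed to compounds for seven days before viability read; percent viability relative to DMSO vehicle control as 100%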
Assay Explanation: Anticancer human tumor 996289-038-R-J1-PDC patient-derived colon adenocarcinoma cell line growth inhibition [PI3K]
Test Conditions: second compound 0.0316 µM; first compound 0.1 µM; hits give low values; spheroids with HUVEC and MSC
Reported Endpoint: viability, T/C (%)
Answers are plain numbers, in %.

Please review the entries below; each comes with its answer.
{"columns": ["Molecule", "Target Under Test", "viability, T/C (%)"],
 "data": [
  ["CC(Cn1ccc(-c2ccc(C#N)c(Cl)c2)n1)NC(=O)c1cc(C(C)O)[nH]n1 (stereo unspecified) + Cc1nc(NC(=O)N2CCCC2C(N)=O)sc1-c1ccnc(C(C)(C)C(F)(F)F)c1", "996289-038-R-J1-PDC spheroid viability", 86.7],
  ["Cn1ncnc1[C@H]1c2n[nH]c(=O)c3cc(F)cc(c23)N[C@@H]1c1ccc(F)cc1 + CC(Nc1ccc2c(c1)OCCn1cc(N3C(=O)OCC3C(F)F)nc1-2)C(N)=O", "996289-038-R-J1-PDC spheroid viability", 85.4],
  ["CC(C)n1nc(-c2ccc3oc(N)nc3c2)c2c(N)ncnc21 + CC(Nc1ncnc2nc[nH]c12)c1cc2cccc(Cl)c2c(=O)n1-c1ccccc1", "996289-038-R-J1-PDC spheroid viability", 42.3],
  ["CNC(=O)c1ccc(N2C(=S)N(c3ccc(C#N)c(C(F)(F)F)c3)C(=O)C2(C)C)cc1F + Cc1nc(NC(=O)N2CCCC2C(N)=O)sc1-c1ccnc(C(C)(C)C(F)(F)F)c1", "996289-038-R-J1-PDC spheroid viability", 95.8],
  ["CCN1CCN(Cc2ccc(Nc3ncc(F)c(-c4cc(F)c5nc(C)n(C(C)C)c5c4)n3)nc2)CC1 + CC(Nc1ncnc2nc[nH]c12)c1cc2cccc(Cl)c2c(=O)n1-c1ccccc1", "996289-038-R-J1-PDC spheroid viability", 87.1]
]}

stdin: Query: viability, T/C; subject: Cn1nccc1Nc1nccc(-c2ccn(C(CO)c3ccc(Cl)c(F)c3)c(=O)c2)n1 (stereo unspecified) + Cc1nc(NC(=O)N2CCCC2C(N)=O)sc1-c1ccnc(C(C)(C)C(F)(F)F)c1
stdout: 114
